# assay.system: recombinant human Renin (rhRenin) (Homo sapiens, UniProt P00797)
# Construct: purchased Proteos
# Sequence (P00797 67-406): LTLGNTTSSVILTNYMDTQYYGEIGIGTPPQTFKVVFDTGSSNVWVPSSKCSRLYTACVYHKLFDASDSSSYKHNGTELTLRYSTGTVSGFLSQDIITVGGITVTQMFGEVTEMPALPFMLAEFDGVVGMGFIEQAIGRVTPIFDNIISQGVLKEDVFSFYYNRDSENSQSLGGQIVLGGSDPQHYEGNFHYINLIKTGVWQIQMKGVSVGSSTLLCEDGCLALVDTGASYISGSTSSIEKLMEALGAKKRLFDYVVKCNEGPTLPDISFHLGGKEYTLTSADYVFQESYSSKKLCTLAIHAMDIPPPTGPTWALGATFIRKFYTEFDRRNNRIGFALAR
# assay.procedure: Enzyme activation profile of R agents, renin
# Assay type: biochemical
# measurement.conditions: probe 1 μM, enzyme 100 nM, 37 C, 24 hours; FIG. 11
F5 = not defined here
recorded.endpoint: activation by recombinant human renin (released fluorescent unit)

substance: [F5]-Lys-His-Pro-Phe-His-Leu-Val-Ile-His-Lys(F5)-[NHmPEG20k] (F5-KHPFHLVIHK(F5)-NHmPEG20k; reading uncertain; also: printed as [F5]-Lys-His-Pro-Phe-His-Leu-Val-Ile-His-Lys(F5)-[NHmPEG20k]) [Agent R21]
result.value: activated
--
substance: [F5]-Lys-His-Pro-Phe-His-Leu-Val-Ile-His-Lys(F5)-[NHmPEG5k] (F5-KHPFHLVIHK(F5)-NHmPEG5k; reading uncertain; also: printed as [F5]-Lys-His-Pro-Phe-His-Leu-Val-Ile-His-Lys(F5)-[NHmPEG5k]) [Agent R27]
result.value: activated
